target under test: PXDN; note: reference of the scale not given here
assay info: pooled miR-30 sensor sort-seq; sequence = guide strand
condition notes: shRNA
measure name: sensor-assay potency score (higher = more potent)
Give bare numbers.

Look over these answered cases.
# sequence record, meas value
rows = [
    ("TTTTCCACTTTCTGTCACCTGA", 0.0535),
    ("TTCTATCTGATTAAAGTGCAGG", -0.41),
    ("TATCTGATTAAAGTGCAGGTAT", -0.445),
    ("TATAGCTCTGTCAACAGTCGCA", -0.0838),
    ("TTCACAGTTCAGCTCTTCCGGG", -0.633),
]

Attention now shifts to the item below.
Noted sensor-assay potency score (higher = more potent) for TTGAGGTCGACCATCAAGCCAT , tested on PXDN: -0.562
